# Tested on: Mycobacterium tuberculosis
# RUN_DESCRIPTION: Inhibition of oleate production in Mycobacterium bovis BCG
# Assay type: functional, variant bovis BCG
Rule: label 1 for Inhibition not less than 60%, label 0 for anything less.

// known answers, use as guide
CCCCOc1ccc(NC(=S)Nc2ccc(OCCC(C)C)cc2)cc1 : label 1
CC(C)CCOc1ccc(NC(=S)Nc2ccc(Cc3ccccc3)cc2)cc1 : label 0
CC(C)CCOc1ccc(NC(=S)Nc2ccc(OCC(C)C)cc2)cc1 : label 0

Identify whether the reported Inhibition of the following compound is 60% or greater: CC(C)COc1ccc(NC(=S)Nc2ccc(OCC(C)C)cc2)cc1
label 0

Identify whether the reported Inhibition of the following compound is 60% or greater: CCCCOc1ccc(NC(=S)Nc2ccc(Cc3ccccc3)cc2)cc1
label 1

Identify whether the reported Inhibition of the following compound is 60% or greater: CCCSc1ccc(NC(=S)Nc2ccc(OCCC(C)C)cc2)cc1
label 0

Identify whether the reported Inhibition of the following compound is 60% or greater: CCCCOc1ccc(NC(=S)Nc2ccc(OCCCC)cc2)cc1
label 1

Identify whether the reported Inhibition of the following compound is 60% or greater: CCCCOc1ccc(NC(=S)Nc2ccc(OCC(C)C)cc2)cc1
label 1

Identify whether the reported Inhibition of the following compound is 60% or greater: CCCCc1ccc(NC(=S)Nc2ccc(OCCC(C)C)cc2)cc1
label 0

Identify whether the reported Inhibition of the following compound is 60% or greater: CCCOc1ccc(NC(=S)Nc2ccc(OCCC)cc2)cc1
label 1

Identify whether the reported Inhibition of the following compound is 60% or greater: CCCCOc1ccc(NC(=S)Nc2ccc(SCC(C)C)cc2)cc1
label 0
